meta.source: ChEMBL document CHEMBL4732252

Reported microsomal CLint values for a set of compounds
assay_overview: Intrinsic clearance in human liver microsomes
Type: ADME, Microsome
measurement_context: read-out: CLH

1) O=C(Nc1ccc(Oc2cc(NC(=O)C3CC3)ncn2)cc1)Nc1ccc(CN2CCn3ccnc3C2)c(C(F)(F)F)c1	16 µL/min/mg
2) CCn1c(-c2nnc(N(C)Cc3ccc4nccn4c3)o2)nc2ccccc21	55 µL/min/mg
3) Cc1c(C(=O)Nc2ccc(Oc3ccnc4[nH]cc(-c5ccccc5)c34)c(F)c2)c(=O)n(-c2ccc(F)cc2)n1C	16 µL/min/mg
4) CN(Cc1ccc2nccn2c1)c1nnc(-c2ccc(-c3ccccc3Cl)cc2)o1	46 µL/min/mg

// recorded microsomal CLint for "O=S(=O)(c1ccc(Nc2ncc(N3CCOCC3)c(Nc3ccccc3)n2)cc1)N1CCCCC1" : 190 µL/min/mg

Measured microsomal CLint of "Cc1cc(N(C)C)ccc1-c1nnc(N(C)Cc2ccc3nccn3c2)o1" : 55 µL/min/mg

Noted for "COc1cc2c(Nc3cnc(NC(=O)c4cccn4C)nc3)ncnc2cc1OCCCNC1CCCC1" : its microsomal CLint reads < 3 µL/min/mg

In plain terms, "CN(Cc1ccc2nccn2c1)c1nnc(-c2ccc(OC3CCCC3)cc2)o1" has a documented microsomal CLint of 150 µL/min/mg

The value of microsomal CLint measured for the compound "CNC(=O)c1sc(N2CC3CC2(CNC(=O)c2c[nH]c4ncc(Cl)cc24)C3)nc1C(F)(F)F" turned out to be > 300 µL/min/mg

The reported value for "CN(Cc1ccc2nccn2c1)c1nnc(-c2ncc(C(F)(F)F)cc2Cl)o1" in terms of microsomal CLint is 11 µL/min/mg

###

Reported IC50 values are given for each entry in this list.
tested_on: UniProt P36888
Sequence (P36888 whole entry, the tested form may be a part): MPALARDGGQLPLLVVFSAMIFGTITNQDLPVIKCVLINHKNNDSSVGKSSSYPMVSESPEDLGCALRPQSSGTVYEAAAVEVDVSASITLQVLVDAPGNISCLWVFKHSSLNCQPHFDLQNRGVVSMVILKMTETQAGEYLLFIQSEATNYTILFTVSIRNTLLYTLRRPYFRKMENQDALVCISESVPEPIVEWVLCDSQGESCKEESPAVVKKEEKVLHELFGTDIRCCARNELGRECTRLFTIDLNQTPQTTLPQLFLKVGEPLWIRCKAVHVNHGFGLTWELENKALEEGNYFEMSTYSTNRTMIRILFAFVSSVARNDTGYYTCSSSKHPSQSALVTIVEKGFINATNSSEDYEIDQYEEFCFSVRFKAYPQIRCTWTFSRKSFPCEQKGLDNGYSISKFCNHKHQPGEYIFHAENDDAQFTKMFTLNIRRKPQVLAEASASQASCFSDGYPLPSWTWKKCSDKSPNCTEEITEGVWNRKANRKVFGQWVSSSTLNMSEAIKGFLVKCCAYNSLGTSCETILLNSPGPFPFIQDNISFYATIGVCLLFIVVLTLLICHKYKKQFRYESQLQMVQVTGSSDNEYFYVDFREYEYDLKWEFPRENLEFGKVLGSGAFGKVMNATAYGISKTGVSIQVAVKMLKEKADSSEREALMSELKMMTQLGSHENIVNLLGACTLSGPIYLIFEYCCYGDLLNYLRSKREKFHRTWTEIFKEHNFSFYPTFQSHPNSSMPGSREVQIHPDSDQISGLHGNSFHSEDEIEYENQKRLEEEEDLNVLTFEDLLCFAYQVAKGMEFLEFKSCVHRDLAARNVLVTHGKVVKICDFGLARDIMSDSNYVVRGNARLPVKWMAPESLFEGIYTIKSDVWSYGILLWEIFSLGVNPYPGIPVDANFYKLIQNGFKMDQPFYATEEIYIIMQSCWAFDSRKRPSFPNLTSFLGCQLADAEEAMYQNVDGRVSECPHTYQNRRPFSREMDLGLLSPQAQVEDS
assay_overview: Inhibition of His6/TEV fused-GST-tagged Flt3 (unknown origin) (H564 to S993 residues) using Axltide (CKKSRGDYMTMQJ-acid) peptide as substrate preincubated for 30 mins followed by substrate addition in presence of ATP and measured for 90 mins by ADP-Glo Reagent based method
Use µM as the unit, but write only the number.

1. CNc1nc(OC2CCCC2)nc2c1ncn2Cc1c(F)cccc1F	100

Turning to the following molecule.
According to the records, this molecule "COc1cc2c(Nc3cnc(NC(=O)c4cccn4C)nc3)ncnc2cc1OCCCNC1CCCC1" displays IC50 of 10

###

Here the recorded logD is given for each entry.
assay_overview: Distribution coefficient, logD of compound at pH 7.4
Type: physicochemical
measurement_context: octanol/water
Kindly provide the number alone.

1) CNc1nc(OCC2CCC2)nc2c1ncn2Cc1c(F)cccc1F	4.4

Entry "O=C(Nc1ccc(Oc2cc(NC(=O)C3CC3)ncn2)cc1)Nc1ccc(CN2CCn3ccnc3C2)c(C(F)(F)F)c1" , logD reported as 4.5

Recorded logD (compound "CNC(=O)c1cnc(Nc2ccc(OC)cc2C)nc1NC1CCCC1" ): 4.2

###

tested_on: Tyrosine-protein kinase receptor UFO (Homo sapiens, UniProt P30530)
Sequence (P30530 whole entry): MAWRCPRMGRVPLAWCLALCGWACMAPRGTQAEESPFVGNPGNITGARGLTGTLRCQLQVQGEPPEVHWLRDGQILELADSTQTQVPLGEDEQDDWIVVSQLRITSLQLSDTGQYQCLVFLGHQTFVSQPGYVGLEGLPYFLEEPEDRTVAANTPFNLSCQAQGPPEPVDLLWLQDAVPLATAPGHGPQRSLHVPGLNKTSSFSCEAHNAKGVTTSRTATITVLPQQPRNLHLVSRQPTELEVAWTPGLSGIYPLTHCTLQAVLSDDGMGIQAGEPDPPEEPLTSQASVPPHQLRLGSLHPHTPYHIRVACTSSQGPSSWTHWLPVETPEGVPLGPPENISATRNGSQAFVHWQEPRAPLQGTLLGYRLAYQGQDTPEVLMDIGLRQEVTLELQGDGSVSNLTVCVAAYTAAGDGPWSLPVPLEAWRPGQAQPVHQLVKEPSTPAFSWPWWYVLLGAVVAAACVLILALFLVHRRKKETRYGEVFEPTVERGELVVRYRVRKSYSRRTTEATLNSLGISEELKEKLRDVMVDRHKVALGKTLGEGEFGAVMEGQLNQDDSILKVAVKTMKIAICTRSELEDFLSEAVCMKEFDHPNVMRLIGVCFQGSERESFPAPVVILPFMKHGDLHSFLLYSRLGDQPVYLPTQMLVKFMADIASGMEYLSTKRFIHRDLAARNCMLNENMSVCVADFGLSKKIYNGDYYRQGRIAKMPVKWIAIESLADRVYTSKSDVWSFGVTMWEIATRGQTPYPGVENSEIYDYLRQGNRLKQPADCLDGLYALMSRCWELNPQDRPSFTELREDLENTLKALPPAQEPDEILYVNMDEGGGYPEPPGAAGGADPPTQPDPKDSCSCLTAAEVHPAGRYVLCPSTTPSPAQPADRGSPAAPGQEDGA
assay_overview: Inhibition of GST-tagged AXL (unknown origin) ([…] residues) using Axltide (CKKSRGDYMTMQJG-acid) peptide as substrate preincubated for 30 mins followed by substrate and ATP addition at Km concentration measured after 180 mins by RapidFire LC-MS analysis
pIC50 overview
In textbook form, pIC50 equals minus log to base ten of the concentration in mol/L.

The cases that follow already have their pIC50 on record.
1. CNC(=O)c1sc(N2CC3CC2(CNC(=O)c2c[nH]c4ncc(C)cc24)C3)nc1C(F)(F)F	8.40
2. CN(Cc1ccc2nccn2c1)c1nnc(-c2ccc(-c3ccccc3Cl)cc2)o1	6.40
3. CNc1nc(OCC2CCC2)nc2c1ncn2Cc1c(F)cccc1F	5.80
4. O=C(Nc1ccc(Oc2cc(NC(=O)C3CC3)ncn2)cc1)Nc1ccc(CN2CCn3ccnc3C2)c(C(F)(F)F)c1	6.40

According to the records, this compound "CNC(=O)c1sc(N2CC3CC2(CNC(=O)c2c[nH]c4ncc(C(F)(F)F)cc24)C3)nc1C(F)(F)F" displays pIC50 of 7.60

Reported pIC50 ( "CS(=O)(=O)c1cnc(Nc2ccc(O)cc2)nc1NCc1ccccc1" ) = 5.80

GET /value?item= "CNC(=O)c1sc(N2CC3CC2(CNC(=O)c2c[nH]c4ncc(Cl)cc24)C3)nc1C(F)(F)F" &field=pIC50 returns 8.00

Documented pIC50 of "CNC(=O)c1sc(N2CC3CC2(CNC(=O)c2c[nH]c4ncccc24)C3)nc1C(F)(F)F" : 8.00

Measured pIC50 of "COc1cc2c(Nc3cnc(OCCCC4CCCC4)nc3)ncnc2cc1OCCCN1CCCCC1" : 8.00
